# Tested on: HeLa
# measurementNotes: Cytotoxicity against human HeLa cells after 3 days by MTT assay
# Type: functional, cell-based
# particulars: 72 h
Exercise: state measured IC50 for each of the compounds provided.

compound=O=C(N[C@H](COC(=O)[C@@H](Cc1ccccc1)NC(=O)c1cccs1)Cc1ccccc1)c1ccccc1 propertylabel=IC50 measvalue="> 100 µM"
compound="O=C(N[C@@H](COC(=O)[C@H](Cc1ccccc1)NC(=O)c1ccncc1)Cc1ccccc1)c1ccccc1 (single isomer, unassigned)" propertylabel=IC50 measvalue="> 100 µM"
compound="O=C(N[C@@H](COC(=O)[C@H](Cc1ccccc1)NC(=O)n1ccnc1)Cc1ccccc1)c1ccccc1 (single isomer, unassigned)" propertylabel=IC50 measvalue="> 100 µM"
compound=CS(=O)(=O)N[C@H](Cc1ccccc1)C(=O)OC[C@H](Cc1ccccc1)NC(=O)c1ccccc1 propertylabel=IC50 measvalue="22.1 µM"
compound=Cc1ccc(S(=O)(=O)N[C@@H](Cc2ccccc2)C(=O)OC[C@@H](Cc2ccccc2)NC(=O)c2ccccc2)cc1 propertylabel=IC50 measvalue="41.9 µM"
compound=O=C(N[C@H](COC(=O)[C@H](Cc1ccccc1)NC(=O)n1cncn1)Cc1ccccc1)c1ccccc1 propertylabel=IC50 measvalue="> 100 µM"
compound=O=C(N[C@H](COC(=O)[C@H](Cc1ccccc1)NC(=O)c1ccco1)Cc1ccccc1)c1ccccc1 propertylabel=IC50 measvalue="> 100 µM"
compound=O=C(N[C@@H](COC(=O)[C@@H](Cc1ccccc1)NC(=O)c1cccnc1)Cc1ccccc1)c1ccccc1 propertylabel=IC50 measvalue="> 100 µM"
compound="O=C(N[C@H](COC(=O)[C@@H](Cc1ccccc1)NC(=O)n1cncn1)Cc1ccccc1)c1ccccc1 (single isomer, unassigned)" propertylabel=IC50 measvalue="78.9 µM"
compound="O=C(N[C@@H](COC(=O)[C@H](Cc1ccccc1)NC(=O)c1cccnc1)Cc1ccccc1)c1ccccc1 (single isomer, unassigned)" propertylabel=IC50 measvalue="> 100 µM"

Take each entry in turn and give its IC50.
1. Cc1ccc(S(=O)(=O)N[C@H](Cc2ccccc2)C(=O)OC[C@H](Cc2ccccc2)NC(=O)c2ccccc2)cc1
2. O=C(N[C@H](COC(=O)[C@@H](Cc1ccccc1)NC(=O)c1cccnc1)Cc1ccccc1)c1ccccc1 (single isomer, unassigned)
3. O=C(N[C@@H](COC(=O)[C@H](Cc1ccccc1)NC(=O)n1cncn1)Cc1ccccc1)c1ccccc1 (single isomer, unassigned)
4. O=C(N[C@H](COC(=O)[C@H](Cc1ccccc1)NC(=O)c1ccncc1)Cc1ccccc1)c1ccccc1

1: 16.8 µM; 2: 24.9 µM; 3: > 100 µM; 4: > 100 µM

Which measured IC50 value corresponds to CS(=O)(=O)N[C@@H](Cc1ccccc1)C(=O)OC[C@@H](Cc1ccccc1)NC(=O)c1ccccc1 ? > 100 µM

---

Provide the recorded pIC50 for the entries that follow.
# Tested on: HeLa
# measurementNotes: Cytotoxicity against human HeLa cells after 3 days by MTT assay
# Format: functional, cell-based
# particulars: 72 h
Give bare numbers, as −log10 of the molar value.

Use these answered entries as a reference point.
molecule="O=C(N[C@H](COC(=O)[C@@H](Cc1ccccc1)NC(=O)c1ccncc1)Cc1ccccc1)c1ccccc1 (single isomer, unassigned)" propertylabel=pIC50 measvalue=4.47
molecule=CS(=O)(=O)N[C@@H](Cc1ccccc1)C(=O)OC[C@H](Cc1ccccc1)NC(=O)c1ccccc1 propertylabel=pIC50 measvalue=4.03
molecule="O=C(N[C@H](COC(=O)[C@@H](Cc1ccccc1)NC(=O)n1ccnc1)Cc1ccccc1)c1ccccc1 (single isomer, unassigned)" propertylabel=pIC50 measvalue=4.14
molecule=O=C(N[C@@H](COC(=O)[C@@H](Cc1ccccc1)NC(=O)c1ccncc1)Cc1ccccc1)c1ccccc1 propertylabel=pIC50 measvalue=4.05
molecule=CS(=O)(=O)N[C@H](Cc1ccccc1)C(=O)OC[C@@H](Cc1ccccc1)NC(=O)c1ccccc1 propertylabel=pIC50 measvalue=4.19

Next, consider the following molecule.
What value of pIC50 has been recorded for this entry: Cc1ccc(S(=O)(=O)N[C@H](Cc2ccccc2)C(=O)OC[C@@H](Cc2ccccc2)NC(=O)c2ccccc2)cc1 4.50
